Would you kindly list self-aminoacylation for each of these sequences?
Test system: biotinyl-Ile-oxazolone
assay summary: self-aminoacylation, catalytic enhancement (BIO) (fold over background); higher = more active; k-Seq, kA / k0A0; sequences stand for … in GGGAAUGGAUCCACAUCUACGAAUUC…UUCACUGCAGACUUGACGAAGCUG
Fewer inactive variants are shown than the library holds.
Give the value as a plain number.

Query string: Can you look up the measured self-aminoacylation of AUUACCCUGGUCAUUAAGUGA [Fam2.1 aminoacylation ribozyme variant] for me?
Result string: 4.88

Query string: # self-aminoacylation lookup, item CUAUUUCAAACAAUCAGUCUG [Fam1A.1 aminoacylation ribozyme variant]
Result string: 0.795

Query string: // query self-aminoacylation value for entry CCACACUUCAAGCAACCGGCC [Fam1B.1 aminoacylation ribozyme variant]
Result string: 3.66

Query string: # get_value(readout='self-aminoacylation', item= ACACACUUCAAGCAAUCGGUU [Fam1B.1 aminoacylation ribozyme variant] )
Result string: 2.21

Query string: Recorded self-aminoacylation for AAGGUUGCUAAUAGGCGCAAG [Fam3.1 aminoacylation ribozyme variant] , please?
Result string: 1.19

Query string: Return reported self-aminoacylation; argument: AUUCACAUACGUCAUCGGGUG [Fam2.2 aminoacylation ribozyme variant]
Result string: 4.62

Query string: self-aminoacylation for AUUACCCUACUCAUCGAGUGA [Fam2.1 aminoacylation ribozyme variant] ?
Result string: 3.24

Query string: So what's the measured self-aminoacylation for this one? CUACUUCAGACAAUCGGUCUG [Fam1A.1 aminoacylation ribozyme variant]
Result string: 0.782

Query string: Quick check: self-aminoacylation of AUUACCCUGGUCUUCGCGUGA [Fam2.1 aminoacylation ribozyme variant] ?
Result string: 5.89

====

Test system: biotinyl-Val-oxazolone
assay summary: self-aminoacylation, catalytic enhancement (BVO) (fold over background); higher = more active; k-Seq, kA / k0A0; sequences stand for … in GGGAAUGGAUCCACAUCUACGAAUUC…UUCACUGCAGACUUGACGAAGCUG
Variants at the floor of the assay were thinned out.
# self-aminoacylation binned as lo: < 0.8; med: ≥ 0.8 and < 4; hi: ≥ 4

Query string: Determine which band this sequence sits in: AUUAGCCCGGUCAUCGAGUGA [Fam2.1 aminoacylation ribozyme variant]
Result string: med

Query string: Could you tell me which band AUUACCCUUGUCAUCUAGUGA [Fam2.1 aminoacylation ribozyme variant] belongs to?
Result string: med

Query string: Bin this entry: AAGUUUGGUAAUAGGCGCAAG [Fam3.1 aminoacylation ribozyme variant]
Result string: lo

Query string: # classify by self-aminoacylation band: CUACUUCAAACAAUCGAACUG [Fam1A.1 aminoacylation ribozyme variant]
Result string: lo

Query string: Dear colleague, I would appreciate it if you could identify the bin for AGGCACCUAGGUCAUCGGGUG [Fam2.2 aminoacylation ribozyme variant] and reply at your convenience.
Result string: med

Query string: Category lookup for the sequence AUUCAUCUAGGUCAUCCGGUG [Fam2.2 aminoacylation ribozyme variant]
Result string: hi

Query string: Which band does AUUAGCCUGGUAAUCGAGUGA [Fam2.1 aminoacylation ribozyme variant] fall in?
Result string: hi

Query string: Using the reported self-aminoacylation, which band applies to AAGUCUGCUCAUAGUCGCAAG [Fam3.1 aminoacylation ribozyme variant] ?
Result string: med

====

Test system: biotinyl-Met-oxazolone
assay summary: self-aminoacylation, catalytic enhancement (BMO) (fold over background); higher = more active; k-Seq, kA / k0A0; sequences stand for … in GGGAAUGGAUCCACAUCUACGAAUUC…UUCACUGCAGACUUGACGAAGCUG
Variants at the floor of the assay were thinned out.
Kind request: treat 3 as inclusive, so self-aminoacylation at 3 or higher is y, anything lower is n.

Query string: Quick check, self-aminoacylation >= 3? UUUACCCUAGUCAUCGAGUGA [Fam2.1 aminoacylation ribozyme variant]
Result string: y

Query string: State whether the measured self-aminoacylation reaches 3, counting equality as reaching it, for CUACUUCAAACAAUCGUUCUU [Fam1A.1 aminoacylation ribozyme variant]
Result string: n

Query string: Answer whether self-aminoacylation of AGGUUAGCUAAUAGUCGCAAG [Fam3.1 aminoacylation ribozyme variant] is greater than or equal to 3.
Result string: n

Query string: Evaluate AGUACCCUGGUGAUCGAGUGA [Fam2.1 aminoacylation ribozyme variant] : self-aminoacylation at minimum 3?
Result string: y

Query string: Determine whether measured self-aminoacylation meets or exceeds 3 for AAAUUUGCUAAUAGUUGCAAG [Fam3.1 aminoacylation ribozyme variant]
Result string: n

Query string: Form field: self-aminoacylation at least 3? Entry: CUCACCCUGGUCAUCGAGUGA [Fam2.1 aminoacylation ribozyme variant]
Result string: y

Query string: Record AGGUUUGCUAAUAGUCGCAAA [Fam3.1 aminoacylation ribozyme variant] ; criterion: self-aminoacylation no lower than 3. Met?
Result string: n

Query string: Check the entry CCACAUUUCAAGCAAUCGGUU [Fam1B.1 aminoacylation ribozyme variant] : does self-aminoacylation equal or exceed 3?
Result string: n

Query string: Quick check, self-aminoacylation >= 3? UCACACUUCAAGCAACCGGUC [Fam1B.1 aminoacylation ribozyme variant]
Result string: n

Query string: API: above_or_equal(metric=self-aminoacylation, cutoff=3) for item AUUCACCUAGGUCAUCAAGUG [Fam2.2 aminoacylation ribozyme variant]
Result string: n

Query string: Does self-aminoacylation meet or surpass 3 for AUCACCCUGGUCGUCGAGUGA [Fam2.1 aminoacylation ribozyme variant] ?
Result string: n

Query string: For this sequence, is measured self-aminoacylation 3 or higher? UUUACCCGGGUCAUCGAGUGA [Fam2.1 aminoacylation ribozyme variant]
Result string: y

Query string: Record AAGUCUGCUCAUAGUCGCAAG [Fam3.1 aminoacylation ribozyme variant] ; criterion: self-aminoacylation no lower than 3. Met?
Result string: n

Query string: Can CUACUUCAAACAAUCGAUUUG [Fam1A.1 aminoacylation ribozyme variant] be said to have self-aminoacylation at or above 3?
Result string: n

Query string: Say whether CUACUUCGAACAAUCGGCCUG [Fam1A.1 aminoacylation ribozyme variant] shows self-aminoacylation of 3 or more.
Result string: n

Query string: Check the entry AGGUUUGCUAAUAGUCGCAAC [Fam3.1 aminoacylation ribozyme variant] : does self-aminoacylation equal or exceed 3?
Result string: n

Query string: Item AUCACCCUUGUCAUCGAGUGA [Fam2.1 aminoacylation ribozyme variant] with self-aminoacylation of 3 or above?
Result string: y

====

Test system: biotinyl-Phe-oxazolone
assay summary: self-aminoacylation, catalytic enhancement (BFO) (fold over background); higher = more active; k-Seq, kA / k0A0; sequences stand for … in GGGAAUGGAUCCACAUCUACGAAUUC…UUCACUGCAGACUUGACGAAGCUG
Fewer inactive variants are shown than the library holds.
So I've got a bunch of sequences here, and I need their self-aminoacylation values.
Answer with a bare number; do not write a unit.

Query string: Form: Entry = AUUCACCUACGUCAACGGGUG [Fam2.2 aminoacylation ribozyme variant] | System = biotinyl-Phe-oxazolone | self-aminoacylation = ____
Result string: 9.97

Query string: Look up self-aminoacylation with biotinyl-Phe-oxazolone for this sequence: AUUACCCUGAUUAUCGAGUGA [Fam2.1 aminoacylation ribozyme variant]
Result string: 117

Query string: Find the measured self-aminoacylation: item AUACUUCAAACAAUCGGUGUG [Fam1A.1 aminoacylation ribozyme variant] , target or system biotinyl-Phe-oxazolone.
Result string: 3.81

Query string: Provide value of self-aminoacylation for this record tested with biotinyl-Phe-oxazolone: AAGUUUGCUAAUUGUAGCAAG [Fam3.1 aminoacylation ribozyme variant]
Result string: 0.987

Query string: Hi! What's the reported self-aminoacylation for CUACUUCAAACAAUCGGCCAG [Fam1A.1 aminoacylation ribozyme variant] on biotinyl-Phe-oxazolone?
Result string: 1.84

Query string: What value of self-aminoacylation on biotinyl-Phe-oxazolone does CCACACUCCCAGCAAUCGGUC [Fam1B.1 aminoacylation ribozyme variant] have?
Result string: 0.634

Query string: // fetch biotinyl-Phe-oxazolone self-aminoacylation for CUAGUUCAAACACUCGGUCUG [Fam1A.1 aminoacylation ribozyme variant]
Result string: 5.58

Query string: Item AAGGUUGGUAAUAGUCGCAAG [Fam3.1 aminoacylation ribozyme variant] with biotinyl-Phe-oxazolone - self-aminoacylation?
Result string: 2.09

Query string: Request - read-out self-aminoacylation | tested on biotinyl-Phe-oxazolone | sequence AUUUCCUUGGUCAUCGAGUGA [Fam2.1 aminoacylation ribozyme variant]
Result string: 43.8

====

System: biotinyl-Phe-oxazolone
assay summary: self-aminoacylation, catalytic enhancement (BFO) (fold over background); higher = more active; k-Seq, kA / k0A0; sequences stand for … in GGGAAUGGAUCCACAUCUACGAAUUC…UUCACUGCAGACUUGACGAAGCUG
Fewer inactive variants are shown than the library holds.
measurement type: self-aminoacylation

Query string: May I ask what self-aminoacylation has been recorded for ACUAGCCUGGUCAUCGAGUGA [Fam2.1 aminoacylation ribozyme variant] ?
Result string: 30.2

Query string: // query self-aminoacylation value for entry AUUACCCCGGUCAUCGAGUGU [Fam2.1 aminoacylation ribozyme variant]
Result string: 9.98

Query string: So what's the measured self-aminoacylation for this one? CGACACUACAAGCAAUCGGUC [Fam1B.1 aminoacylation ribozyme variant]
Result string: 0.638

Query string: Find the recorded self-aminoacylation belonging to GAGUUUGCUAAUAGUAGCAAG [Fam3.1 aminoacylation ribozyme variant] and report it.
Result string: 3.32

Query string: GET /values?readout=self-aminoacylation&item= CCACACUUCACGCCAUCGGUC [Fam1B.1 aminoacylation ribozyme variant]
Result string: 1.28

Query string: Would you mind telling me what self-aminoacylation value was observed for AAGCUUGCUAACAGUCGCAAG [Fam3.1 aminoacylation ribozyme variant] ?
Result string: 3.33

Query string: Report self-aminoacylation for AAUCACCUAGGUCUUCGGGUG [Fam2.2 aminoacylation ribozyme variant] please.
Result string: 46.9

Query string: Quick check: self-aminoacylation of CCACACUUCUAGCAAUCGGGC [Fam1B.1 aminoacylation ribozyme variant] ?
Result string: 4.87

Query string: Quick check: self-aminoacylation of ACUCACCUGGGUCAUCGGGUG [Fam2.2 aminoacylation ribozyme variant] ?
Result string: 38.9

Query string: Any idea what self-aminoacylation was measured for AUUCACCUAGGCCAUCGGCUG [Fam2.2 aminoacylation ribozyme variant] ?
Result string: 10.5

Query string: Any idea what its self-aminoacylation is? The sequence is AAGUUUGCUAAAAGUCGCAAA [Fam3.1 aminoacylation ribozyme variant]
Result string: 1.91

Query string: I would be grateful if you could share the reported self-aminoacylation for AUUACCCUGGGCAUGGAGUGA [Fam2.1 aminoacylation ribozyme variant] .
Result string: 40.7

Query string: Please look up its self-aminoacylation: CCAUACAUCAAGCAAUCGGUC [Fam1B.1 aminoacylation ribozyme variant]
Result string: 1.06

Query string: Fill in the blank: the reported self-aminoacylation of AUUCACCAAGGUCAUGGGGUG [Fam2.2 aminoacylation ribozyme variant] is ____.
Result string: 77.3

Query string: Entry under review: UUACCUCAAACAAUCGGUCUG [Fam1A.1 aminoacylation ribozyme variant] . Reported self-aminoacylation?
Result string: 3.03

Query string: What self-aminoacylation value was documented for this sequence, CUACUUCAACCAAUCAGUCUG [Fam1A.1 aminoacylation ribozyme variant] ?
Result string: 13.9

Query string: Param item = AAGUUUGCUCACAGUCGCAAG [Fam3.1 aminoacylation ribozyme variant] ; retrieve measured self-aminoacylation.
Result string: 2.76

Query string: Can you share its self-aminoacylation? I mean this sequence: AUUCACCUGGGGCAUCGGGUG [Fam2.2 aminoacylation ribozyme variant]
Result string: 36.1
